- Target Under Test: Human IP6K1 (Homo sapiens)
- Construct: GST (N, cleaved yes); made in house; host or cells: C43 E. coli, pGEX-6P-2
- Method: IP6K1 high-throughput screen of the Sigma LOPAC (ADP-Glo Max, single point);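 further: final compound concentration 10µM in 5% DMSO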
- Assay type: biochemical
- Cond: LOPAC single-point screen, ADP-Glo Max luminescence raw signal per well
Where a name gives a salt, the structure may show the parent alone.
Measured Raw Signal, listed per entry for reference.
Form rule: numeric answer, no unit written next to it.

Below, each entry is followed by its recorded Raw Signal result.
O=S(=O)(NCCNC/C=C/c1ccc(Br)cc1)c1cccc2cnccc12 ... 53512
CN(C)CCC=C1c2ccccc2CCc2ccccc21 [Amitriptyline hydrochloride] ... 54808
O=C1Cc2c([nH]c3ccc(Br)cc23)-c2ccccc2N1 ... 65095
Br.CO[C@H]1CC=C2CCN3CCC4=C(CC(=O)OC4)[C@]23C1 [Dihydro-beta-erythroidine hydrobromide] ... 51044
Clc1cccc(Cl)c1N=C1NCCN1 [Clonidine hydrochloride] ... 54432
CN1CCc2cc3c(cc2[C@H]1[C@@H]1OC(=O)c2c1ccc1c2OCO1)OCO3 [(+)-Bicuculline] ... 66353
CCOC(=O)c1cnc2c(cnn2CC)c1NN=C(C)C [Etazolate hydrochloride] ... 51155
Nc1ccc2c3c(cccc13)C(=O)NC2=O [4-Amino-1,8-naphthalimide] ... 55002
N#CC(C#N)=C(N)/C(C#N)=C/c1ccc(O)cc1 ... 52903
[H]/N=C(/NC)NCCC[C@H](N)C(=O)O [NG-Monomethyl-L-arginine acetate] ... 51513

The recorded Raw Signal for CCCCS(=N)(=O)CCC(N)C(=O)O (racemic) [DL-Buthionine-[S,R]-sulfoximine] is 66724

// recorded Raw Signal for CN1C2CCC1CC(OC(c1ccccc1)c1ccc(Cl)cc1)C2.Cl (stereo not shown) : 50933

Value of Raw Signal reported for the molecule N.N.O=C([O-])C1(C(=O)[O-])CCC1.[Pt+2] is 53949

Record Cc1cccc(C#Cc2ccccc2)n1.Cl , field Raw Signal: 51049

response.value for CC(N)C(=O)OC(C)(C)Cc1ccc(Cl)cc1 (stereo not shown) [Alaproclate hydrochloride] (field: Raw Signal) = 54794

###

- Target Under Test: Human IP6K1 (Homo sapiens, UniProt Q92551)
- Construct: GST (N, cleaved yes); made in house; host or cells: C43 E. coli, pGEX-6P-2
- Sequence (Q92551 whole entry): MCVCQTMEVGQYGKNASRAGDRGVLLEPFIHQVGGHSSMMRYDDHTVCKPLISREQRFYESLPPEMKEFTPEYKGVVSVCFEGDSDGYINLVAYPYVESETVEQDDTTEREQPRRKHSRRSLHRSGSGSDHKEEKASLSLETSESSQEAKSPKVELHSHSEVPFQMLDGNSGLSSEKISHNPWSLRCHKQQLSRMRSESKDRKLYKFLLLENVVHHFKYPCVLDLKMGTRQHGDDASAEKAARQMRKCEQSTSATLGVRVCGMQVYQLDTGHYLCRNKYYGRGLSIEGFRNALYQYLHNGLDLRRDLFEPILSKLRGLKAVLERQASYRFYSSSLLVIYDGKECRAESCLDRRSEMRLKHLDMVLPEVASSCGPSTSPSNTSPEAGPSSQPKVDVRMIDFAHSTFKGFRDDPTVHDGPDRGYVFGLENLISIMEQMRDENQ
- Method: IP6K1 high-throughput screen of the Sigma LOPAC (ADP-Glo Max, single point);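 further: final compound concentration 10µM in 5% DMSO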
- Assay type: biochemical
- Cond: LOPAC single-point screen; Z-score from raw signal with plate average and StDev
Where a name gives a salt, the structure may show the parent alone.
Value Kind: Z-score

As a guide, the following entries are already answered.
Ic1ccccc1CNC1C2CCN(CC2)C1C(c1ccccc1)c1ccccc1.O=C(O)C(=O)O [L-703,606 oxalate] ... -0.261
CCCOC(=O)c1c(-c2ccccc2)nc(CC)c(C(=O)SCC)c1CCC ... -0.2252
O=C(Nc1ccccc1)c1cc([N+](=O)[O-])ccc1Cl ... -0.2802
CC(CCc1ccccc1)NCC(O)c1ccc(O)c(C(N)=O)c1 (stereo not drawn) [Labetalol hydrochloride] ... -0.1789
O=C1OC(=O)[C@H]2[C@@H]1[C@@H]1CC[C@H]2O1 ... -0.3783
OC[C@H]1O[C@@H](n2cnc3c(N[C@H]4CC5CCC4C5)ncnc32)[C@H](O)[C@@H]1O (stereo partly drawn) [(S)-ENBA] ... -0.331
CCCCC/C=C\C/C=C\C/C=C\C/C=C\CCCC(=O)NCC(=O)O ... -0.3947
CC(C)c1ccc2c(c1)c(SC(C)(C)C)c(CC(C)(C)C(=O)O)n2Cc1ccc(Cl)cc1 ... -0.191
CN(C)CC[C@@H](c1ccc(Cl)cc1)c1ccccn1 [(+)-Chlorpheniramine maleate] ... -0.1068
CCCN1C[C@H](CSC)C[C@@H]2c3cccc4[nH]cc(c34)C[C@H]21 [Pergolide methanesulfonate] ... -0.4404

CC(N/C(=N\C#N)Nc1ccncc1)C(C)(C)C (stereo not drawn) yielded Z-score of -0.1224

// Z-score lookup, compound = O=C1NC(=O)C(c2ccccc2)(c2ccccc2)N1 , result: -0.2185

Entry Cl.Cl.Cn1cnc(CCN)c1 [1-Methylhistamine dihydrochloride] , Z-score reported as -0.2718

Entry COc1cc(OC)c(C=C2C(O)=Nc3ccccc32)c(OC)c1 , Z-score reported as -0.3036

Record CCCCCCCC/C=C\CCCCCCCC(=O)NCCO , field Z-score: -0.2205

###

- Target Under Test: Human IP6K1 (Homo sapiens, UniProt Q92551)
- Construct: GST (N, cleaved yes); made in house; host or cells: C43 E. coli, pGEX-6P-2
- Method: IP6K1 high-throughput screen of the Sigma LOPAC (ADP-Glo Max, single point);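 further: final compound concentration 10µM in 5% DMSO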
- Format: biochemical
- Cond: LOPAC single-point screen, Z-score against plate average and StDev
Counter-ions that a name gives are not always drawn.
// classify: if (Z-score < 0.1) YES else NO

Study these solved cases before continuing.
NCCNC(=O)Cc1ccc(NC(=O)Cc2ccc(Nc3ncnc4c3ncn4[C@@H]3O[C@H](CO)[C@@H](O)[C@H]3O)cc2)cc1 ... NO
C[N+]1(C)CCN(c2ccccc2)CC1.[I-] ... NO
Cc1nc2c([nH]1)c(=O)n(C)c(=O)n2Cc1ccco1 ... NO
CN1[C@@H]2CC[C@H]1C[C@@H](OC(c1ccccc1)c1ccccc1N)C2 (stereo partly shown) ... NO
C[C@]12CCC(=O)C=C1CC[C@@H]1[C@@H]2CC[C@]2(C)C(=O)CC[C@@H]12 ... NO
NCCCCN [Putrescine dihydrochloride] ... YES

Lab note: confirm whether the reported Z-score for this compound is below 0.1, equality not counting. compound: Cc1nnc2ccc(-c3cccc(C(F)(F)F)c3)nn12
YES

Just wondering, is Z-score of Cl.c1ccc2c(N3CCNCC3)cccc2c1 [1-(1-Naphthyl)piperazine hydrochloride] below 0.1?
YES

Confirm or reject: Z-score of CC(C)(C)NC[C@H](O)COc1nsnc1N1CCOCC1.O=C(O)/C=C\C(=O)O [S(-)-Timolol maleate] lies strictly below 0.1
NO

Is the reported Z-score for CC(C)(C=O)Cc1cc(C(C)(C)C)c(O)c(C(C)(C)C)c1 strictly below 0.1?
NO

Just wondering, is Z-score of O=C1CCc2cc(OCCCCc3nnnn3C3CCCCC3)ccc2N1 below 0.1?
YES

###

Entries annotated with measured Raw Signal
- Target Under Test: Human IP6K1 (Homo sapiens, UniProt Q92551)
- Construct: GST (N, cleaved yes); made in house; host or cells: C43 E. coli, pGEX-6P-2
- Method: IP6K1 high-throughput screen of the Sigma LOPAC (ADP-Glo Max, single point);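 further: final compound concentration 10µM in 5% DMSO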
- Format: biochemical
- Cond: LOPAC single-point screen, ADP-Glo Max raw signal per well
Where a name gives a salt, the structure may show the parent alone.
Respond numerically, and do not add a unit to the figure.

COc1cc2c(cc1OC)-c1c/c(=N\c3c(C)cc(C)cc3C)n(C)c(=O)n1CC2 [Trequinsin hydrochloride] ... 54369
C[C@@](Cc1ccc(O)c(O)c1)(NN)C(=O)O [S-(-)-Carbidopa] ... 55065
CN1[C@@H](CC(=O)c2ccccc2)CCC[C@H]1C[C@H](O)c1ccccc1.Cl [alpha-Lobeline hydrochloride] ... 53929

Here is the next item to consider.
Field Raw Signal (system: Human IP6K1 (Homo sapiens, UniProt Q92551)) for entry CN(C)CCCN1c2ccccc2Sc2ccc(C(F)(F)F)cc21 [Triflupromazine hydrochloride] = 54007

###

Collected Z-score values appear next to each entry.
- Target Under Test: Human IP6K1 (Homo sapiens, UniProt Q92551)
- Construct: GST (N, cleaved yes); made in house; host or cells: C43 E. coli, pGEX-6P-2
- Method: IP6K1 high-throughput screen of the Sigma LOPAC (ADP-Glo Max, single point);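 further: final compound concentration 10µM in 5% DMSO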
- Type: biochemical
- Cond: LOPAC single-point screen; Z-score relative to plate average and StDev
Structures can show the parent of a compound that is named as a salt.

In the examples that follow, each entry is paired with its recorded Z-score.
O=c1cc(O)cc(/C=C/c2ccc(O)c(O)c2)o1 ... -1.357
N[C@@H](Cc1ccc(O)c(O)c1)C(=O)O [L-3,4-Dihydroxyphenylalanine] ... -2.397
CNC(=O)[C@H]1O[C@@H](n2cnc3c(NCc4cccc(I)c4)ncnc32)[C@H](O)[C@@H]1O ... -0.7885
O=C(O)C1=CC(=C(c2ccc(O)c(C(=O)O)c2)c2ccc(O)c(C(=O)O)c2)C=CC1=O ... -8.775
Cc1cc(N)c2ccccc2[n+]1CCCCCCCCCCCCCC[n+]1c(C)cc(N)c2ccccc21 ... -0.5571

Record summary for NCCCNCCCCNCCCN [Spermine tetrahydrochloride] : reported Z-score = -0.5898

Record N#C/C(=C\c1ccc(O)c(O)c1)C(N)=S . Reported Z-score: -2.705

Z-score for O=C(NCC1CCCCN1)c1cc(OCC(F)(F)F)ccc1OCC(F)(F)F (centres unmarked) [Flecainide acetate] is -0.8944
